meta.source: ChEMBL document CHEMBL1134622

# assay: Plasma concentration after 0 hours of intravenous administration in cunomolgus monkey
# Format: ADME, organism-based, Macaca fascicularis
# condition: cynomolgus monkey
measured.property: C0 at 0 h (ng/mL)
The response must be a number in ng/mL with no trailing unit.

Which C0 at 0 h is listed for Cc1ccnc(C)c1C(=O)N1CCC(C)(N2CCN([C@@H](C)c3ccc(C(F)(F)F)cc3)[C@@H](C)C2)CC1 ?
390

---

# Tested on: Rattus norvegicus
# assay: Pharmacokinetic characterization measured on oral blood levels in rat at 10 mg/kg (0-6 hr)
# Format: ADME, organism-based
# Parameters: time < 6 hr, dose 10 mg/kg, route oral
# condition: in vivo
Measured AUC accompanies every entry in the list below.
// return numeric value only (unit: ng·h/mL, not printed)

Can you share its AUC? I mean this molecule: Cc1ccnc(C)c1C(=O)N1CCC(C)(N2CCN([C@@H](C)c3ccc(C(F)(F)F)cc3)[C@@H](C)C2)CC1
3900

Given the molecule Cc1cccc(O)c1C(=O)N1CCC(C)(N2CCN([C@@H](C)c3ccc(S(C)(=O)=O)cc3)[C@@H](C)C2)CC1 , what is its reported AUC?
384

Query: AUC; subject: Cc1cccc(C)c1C(=O)N1CCC(C)(N2CCN([C@@H](C)c3ccc(C(F)(F)F)cc3)[C@@H](C)C2)CC1
922

Entry under review: C[C@H]1CN(C2(C)CCN(C(=O)c3c(N)cccc3Cl)CC2)CCN1[C@@H](C)c1ccc(S(C)(=O)=O)cc1 . Reported AUC?
447

---

# assay: Half life determined after iv administration to monkey
# Format: ADME, organism-based
# condition: simiiformes, in vivo
measured.property: half-life (h)
Return type: number; implicit unit h.

I'd like to know its half-life. The molecule in question is Cc1cc[n+]([O-])c(C)c1C(=O)N1CCC(C)(N2CCN([C@@H](C)c3ccc(C(F)(F)F)cc3)[C@@H](C)C2)CC1
4

---

Ki values, listed per item
# assay.system: C-C chemokine receptor type 5 (Homo sapiens, UniProt P51681)
# Sequence (P51681 whole entry): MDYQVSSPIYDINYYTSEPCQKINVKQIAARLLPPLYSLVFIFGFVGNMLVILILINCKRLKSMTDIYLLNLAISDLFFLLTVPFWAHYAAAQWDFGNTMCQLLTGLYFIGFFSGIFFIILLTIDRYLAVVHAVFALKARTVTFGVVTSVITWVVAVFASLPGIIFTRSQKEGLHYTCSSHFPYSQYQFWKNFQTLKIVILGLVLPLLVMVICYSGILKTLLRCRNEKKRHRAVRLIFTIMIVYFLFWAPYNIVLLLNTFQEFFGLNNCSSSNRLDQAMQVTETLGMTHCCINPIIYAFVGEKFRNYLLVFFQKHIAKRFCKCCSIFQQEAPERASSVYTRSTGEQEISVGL
# assay: Binding affinity towards C-C chemokine receptor type 5
# include the unit after the value

Cc1cccc(C)c1C(=O)N1CCC(N2CCN([C@@H](C)c3ccccc3)[C@@H](C)C2)CC1 :: 275 nM
Cc1cccc(O)c1C(=O)N1CCC(C)(N2CCN([C@@H](C)c3ccc(C(F)(F)F)cc3)[C@@H](C)C2)CC1 :: 5 nM
Cc1cccc(C)c1C(=O)N1CCC(C)(N2CCN(Cc3ccc(I)cc3)[C@@H](C)C2)CC1 :: 8 nM
Cc1cccc(C)c1C(=O)N1CCC(N2CCN([C@@H](C)c3ccc(Br)cc3)[C@@H](C)C2)CC1 :: 23 nM
Cc1cccc(C)c1C(=O)N1CCC(N2CCN(Cc3ccc(I)cc3)CC2)CC1 :: 440 nM
Cc1cccc(O)c1C(=O)N1CCC(C)(N2CCN([C@@H](C)c3ccc(I)cc3)[C@@H](C)C2)CC1 :: 7 nM
Cc1cccc(C)c1C(=O)N1CCC(C)(N2CCN([C@@H](C)c3ccc(I)cc3)[C@@H](C)C2)CC1 :: 5 nM

// moving on: another record for Ki
Which Ki value is on record for Cc1cccc(C)c1C(=O)N1CCC(C)(N2CCN([C@@H](C)c3ccc(C(F)(F)F)cc3)[C@@H](C)C2)CC1 ?
1 nM
